Please go through the items and note down their hCCL1 (100 nM) residual response, Protocol #2, mAb 0.4 µg/mL.
- Test Target: human CCR8 (human, UniProt P51685 1-355)
- Test Name: cell-based or functional assay

Query block: I am curious: what hCCL1 (100 nM) residual response, Protocol #2, mAb 0.4 µg/mL value has been reported for 3-52 (antibody, V domains shown) VH: QVQLQQPGSELVRPGASVKLSCKASGYTFTSYWMHWVKQRPGQGLEWIGNIWPGSASTNYDEKFKNKATLTVDTSSSTAYMQLSSLTSEDSAVYYCIRGGKGAMDYWSQGTSVTVSS VL: DVVMTQIPLSLPVSLGDQASISCRSSQSLENSYGNTYLNWYLQKPGQSPQLLIYRVSNRFSGVLDRFSGSGSGTDFTLKISRVEAEDLGVYFCLQVTHVPPTFGAGTKLELK ?
Result block: 83%

Query block: I am curious: what hCCL1 (100 nM) residual response, Protocol #2, mAb 0.4 µg/mL value has been reported for 3-46 (antibody, V domains shown) VH: EVQLVETGGGLVQPKGSLKLSCAASGFTFNTNAMNWVRQAPGKGLEWVARIRSKSNYYATYYADSVKDRFTISRDDSQSMLYLQMNNLKTEDTAMYYCVRGREMGNYYSMDYWGQGTSVTVSS VL: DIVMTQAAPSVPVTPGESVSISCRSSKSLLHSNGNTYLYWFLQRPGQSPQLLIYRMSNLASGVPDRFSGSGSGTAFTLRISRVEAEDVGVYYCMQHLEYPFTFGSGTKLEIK ?
Result block: 35%

Query block: I am curious: what hCCL1 (100 nM) residual response, Protocol #2, mAb 0.4 µg/mL value has been reported for 3-80 (antibody, human IgG1, kappa, V domains shown, humanized, human IgG1 kappa) VH: QVQLVQSGPEVVKPGASVKVSCKTSGYTFTEYTIHWVRQAPGQSLEWVGGINPNNGNTRYDQKFQGRVTITRDKSASTAYMELRSLTSEDTAVYYCARVARSSGSGPYAMDYWGQGTTVTVSS VL: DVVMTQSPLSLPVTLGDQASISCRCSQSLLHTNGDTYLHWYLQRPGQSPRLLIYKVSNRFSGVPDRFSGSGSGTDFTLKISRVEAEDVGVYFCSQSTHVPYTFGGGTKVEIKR ?
Result block: 55%

Query block: I am curious: what hCCL1 (100 nM) residual response, Protocol #2, mAb 0.4 µg/mL value has been reported for 3-48 (antibody, V domains shown) VH: QVQLVETGGGLVRPGNSLKLSCVTSGFTFSNYRMHWLRQPPGKRLEWIAVIKVKSDNYGANYAESVKGRFTISRDDSKSSVYLQVNRLREEDTATYYCSSPTYPGSSGFAYWGQGTLVTVSA VL: DIQMTQTTSSLSASLGDRVTISCRASQDISNYLNWYQQKPDGTVKLLIYYTSRLHSGVPSRFSGSGSGTDYSLTISNLEQEDIATYFCQQGNKFPPTFGGGTKLEIN ?
Result block: 89%
